Catalogue of viability at 10 µM readings, one per entry.
Tested on: A375 (Amelanotic Melanoma)
Test: Cell viability analysis, skin cancer A375
Format: cell-based, human
Conditions: Homo sapiens, A-375, 72 h, read-out: cell viability (survival rate), A375, drug 10 μM, 72 hours, WST-1, OD450 nm
Counter-ions that a name gives are not always drawn.

Before answering, review these 4 worked examples.
[[record]]
compound = "Cc1ccnc(NS(=O)(=O)c2ccc(N)cc2)n1"
value_observed = "80.4%"

[[record]]
compound = "CCC[C@@H]1C[C@@H](C(=O)N[C@@H]([C@H]2O[C@H](SC)[C@H](OP(=O)(O)O)[C@@H](O)[C@H]2O)[C@H](C)Cl)N(C)C1 [Clindamycin phosphate]"
value_observed = "81.3%"

[[record]]
compound = "Clc1ccccc1C(c1ccccc1)(c1ccccc1)n1ccnc1"
value_observed = "81.4%"

[[record]]
compound = "Nc1nccs1"
value_observed = "78.4%"


# input Any idea what its viability at 10 µM is? The compound is Cc1onc(-c2c(Cl)cccc2Cl)c1C(=O)N[C@@H]1C(=O)N2[C@@H]1SC(C)(C)[C@@H]2C(=O)O [Dicloxacillin Sodium]
# output 79%

# input And for COc1cc2nc(N3CCN(C(=O)C4CCCO4)CC3)nc(N)c2cc1OC (stereo not drawn) [Terazos in HCl (Hytrin), Terazosin HCl] ?
# output 77.9%

###

# viability at 10 µM annotations
Test system: NIH: OVCAR-3
Test: Cell viability analysis, ovarian cancer NIH: OVCAR-3
Format: cell-based, human
Conditions: Homo sapiens, OVCAR-3, 72 h, read-out: The results of antibiotic drug inhibiting cancer cell lines (cell viability analysis), NIH-OVCAR-3
Counter-ions that a name gives are not always drawn.
Write the value in % as a bare number.

Check out these entries, answers already filled in.
[[record]]
compound = "N=C(N)c1ccc(OCCCCCOc2ccc(C(=N)N)cc2)cc1"
value_observed = 90.9

[[record]]
compound = "CC1(C)S[C@@H]2[C@H](NC(=O)Cc3ccccc3)C(=O)N2[C@H]1C(=O)O [Benzylpenicillin sodium]"
value_observed = 110

[[record]]
compound = "Cc1cc(C(C)(C)C)cc(C)c1CC1=NCCN1 [Xylometazoline HCl]"
value_observed = 102


Alright, here's another compound for you.
# input What viability at 10 µM value was documented for this compound, CC(=O)NC[C@H]1CN(c2ccc(N3CCOCC3)c(F)c2)C(=O)O1 [Linezolid (Zyvox), Linezolid] ?
# output 110

###

Endpoint: viability. System: HCT116 (p53+) (Colorectal Carcinoma). Items follow.
Give just the numeric value; % need not be written.

[[record]]
molecule = "CC[C@@H]([C@H](C)O)n1ncn(-c2ccc(N3CCN(c4ccc(OC[C@@H]5CO[C@@](Cn6cncn6)(c6ccc(F)cc6F)C5)cc4)CC3)cc2)c1=O"
measurement_name = "viability"
value_observed = 51.6

[[record]]
molecule = "CCC[S+]([O-])c1ccc2[nH]c(NC(=O)OC)nc2c1 (stereo not shown) [Albendazole Oxide (Ricobendazole), Albendazole Oxide]"
measurement_name = "viability"
value_observed = 91.3

[[record]]
molecule = "Clc1ccc(C(Cn2ccnc2)OCc2ccsc2Cl)c(Cl)c1 (stereo not shown)"
measurement_name = "viability"
value_observed = 103

[[record]]
molecule = "CN(C)c1cc(NC(=O)CNC(C)(C)C)c(O)c2c1C[C@H]1C[C@H]3[C@H](N(C)C)C(O)=C(C(N)=O)C(=O)[C@@]3(O)C(O)=C1C2=O"
measurement_name = "viability"
value_observed = 89.7

[[record]]
molecule = "CC(C)c1nc(N(C)S(C)(=O)=O)nc(-c2ccc(F)cc2)c1/C=C/[C@@H](O)C[C@@H](O)CC(=O)O"
measurement_name = "viability"
value_observed = 85.6

[[record]]
molecule = "CCCSc1ccc2[nH]c(NC(=O)OC)nc2c1"
measurement_name = "viability"
value_observed = 20.9

[[record]]
molecule = "CCOc1ccc(NC(C)=O)cc1"
measurement_name = "viability"
value_observed = 102

[[record]]
molecule = "CC[C@H](C)C(=O)O[C@H]1CCC=C2C=C[C@H](C)[C@H](CC[C@@H]3C[C@@H](O)CC(=O)O3)[C@H]21"
measurement_name = "viability"
value_observed = 73.6


# input Please look up its viability: CC(C)(C)C(=O)OCOP(=O)(COCCn1cnc2c(N)ncnc21)OCOC(=O)C(C)(C)C
# output 55.4

# input Similarly, COC(=O)Nc1nc2ccc([S+]([O-])c3ccccc3)cc2[nH]1 (stereo not shown) ?
# output 67.4

# input Query CC(NC(C)(C)C)C(=O)c1cccc(Cl)c1 (stereo not shown) next
# output 78.3

# input Also need N#C[C@@H]1C[C@@H]2C[C@H]2N1C(=O)[C@@H](N)C12CC3CC(CC(O)(C3)C1)C2 , thanks.
# output 107

# input Now the same for Cc1noc(NS(=O)(=O)c2ccc(N)cc2)c1C
# output 97.9

###

The entries below come with measured viability at 10 µM values attached.
Tested on: PC3 (p53−) (Prostate Adenocarcinoma)
Assay: Cell viability analysis, prostate cancer PC3
Type: cell-based, human
Conditions: Homo sapiens, 72 h, drug 10 μM, 72 hours, WST-1, OD450 nm; read-out: cell viability (survival rate), PC3
Structures can show the parent of a compound that is named as a salt.
The reply should contain only the number, in %.

Worked set:
[[record]]
compound = "CCCCCCCCCCCCCCCCCCCCCCO"
value_observed = 70.2

[[record]]
compound = "C[C@@H](O)[C@H]1C(=O)N2C(C(=O)O)=C(S[C@@H]3CN[C@H](C(=O)N(C)C)C3)[C@H](C)[C@H]12"
value_observed = 70.7

[[record]]
compound = "CO[C@H]1/C=C/O[C@@]2(C)Oc3c(C)c(O)c4c(O)c(c(/C=N/N5CCN(C)CC5)c(O)c4c3C2=O)NC(=O)/C(C)=C\\C=C\\[C@H](C)[C@H](O)[C@@H](C)[C@@H](O)[C@@H](C)[C@H](OC(C)=O)[C@@H]1C [Rifampin (Rifadin, Rimactane), Rifampin]"
value_observed = 69.9

[[record]]
compound = "CC(C)[C@H](N)C(=O)OCCOCn1cnc2c(=O)[nH]c(N)nc21 [Valaciclovir HCl]"
value_observed = 68.3


The record that follows has no viability at 10 µM shown yet.
# input So what's the measured viability at 10 µM for this one? C[C@H](CCC(=O)O)[C@H]1CC[C@H]2[C@@H]3[C@H](O)C[C@@H]4C[C@H](O)CC[C@]4(C)[C@H]3CC[C@]12C
# output 71.4

###

Tested on: TSGH-8301 (Urinary Bladder Carcinoma)
Assay: Cell viability analysis, bladder cancer TSGH-8301
Assay type: cell-based, human
Settings: Homo sapiens, 72 h, read-out: The results of antibiotic drug inhibiting cancer cell lines (cell viability analysis), TSGH-8301, TSGH-8301; repeated experiment
Structures can show the parent of a compound that is named as a salt.
# viability at 10 µM per record follows
A number alone suffices; assume %.

Use the examples below as a reference point.
[[record]]
compound = "CO[C@H]1/C=C/O[C@@]2(C)Oc3c(C)c(O)c4c(O)c(c5c(nc6cc(C)ccn65)c4c3C2=O)NC(=O)/C(C)=C\\C=C\\[C@H](C)[C@H](O)[C@@H](C)[C@@H](O)[C@@H](C)[C@H](OC(C)=O)[C@@H]1C"
target_or_system = "TSGH-8301 (Urinary Bladder Carcinoma)"
measurement_name = "viability at 10 µM"
value_observed = 114

[[record]]
compound = "COc1cc(NC(C)CCCN)c2ncccc2c1 (stereo not shown) [Primaquine Diphosphate]"
target_or_system = "TSGH-8301 (Urinary Bladder Carcinoma)"
measurement_name = "viability at 10 µM"
value_observed = 51.5

[[record]]
compound = "CC(=O)NC[C@H]1CN(c2ccc(N3CCOCC3)c(F)c2)C(=O)O1 [Linezolid (Zyvox), Linezolid]"
target_or_system = "TSGH-8301 (Urinary Bladder Carcinoma)"
measurement_name = "viability at 10 µM"
value_observed = 99.7

[[record]]
compound = "CN(C)[C@@H]1C(O)=C(C(N)=O)C(=O)[C@@]2(O)C(O)=C3C(=O)c4c(O)cccc4[C@@](C)(O)[C@H]3C[C@@H]12 [Tetracycline HCl]"
target_or_system = "TSGH-8301 (Urinary Bladder Carcinoma)"
measurement_name = "viability at 10 µM"
value_observed = 103


# input Find the recorded viability at 10 µM belonging to Fc1ccc([C@@H]2CCNC[C@H]2COc2ccc3c(c2)OCO3)cc1 and report it.
# output 38.4

# input Same thing, different compound: CN(C)[C@@H]1C(O)=C(C(N)=O)C(=O)[C@@]2(O)C(O)=C3C(=O)c4c(O)ccc(Cl)c4[C@@](C)(O)[C@H]3C[C@@H]12 [Chlortetracycline HCl]
# output 152

# input Again, but for C=C1[C@H](CO)[C@@H](O)C[C@@H]1n1cnc2c(=O)[nH]c(N)nc21 [Entecavir hydrate]
# output 103
